Ref: patent US20020111274A1

Tested on: SETVI Foxtail, Green
Assay: Preemergence herbicidal evaluation, SETVI
Assay type: in vivo, Setaria viridis, (L.) Beau
Parameters: scale not given here
Details: preemergence, rate 0.032 kg/ha
API: label(entry) gives 1 (yes) if the entry's SETVI herbicidal rating is strictly smaller than 6; on equality or larger values it gives 0 (no).

Solved cases below.
Ask | Lab note: confirm whether the reported SETVI herbicidal rating for this compound is below 6, equality not counting. compound: "Cc1ccc(-n2nnc3cc(F)c(-n4c(=O)cc(C(F)(F)F)n(C)c4=O)cc32)cc1"
Reply | 0 (no)

Ask | Given the entry "COCc1ccccc1-n1nnc2cc(F)c(-n3c(=O)cc(C(F)(F)F)n(C)c3=O)cc21" , would its reported SETVI herbicidal rating be below 6?
Reply | 0 (no)

Ask | Record "COC(=O)COc1ccc(C)c(-n2nnc3cc(F)c(-n4c(=O)cc(C(F)(F)F)n(C)c4=O)cc32)c1" : is its SETVI herbicidal rating strictly below 6?
Reply | 1 (yes)

Ask | Problem: For the compound "COc1ccc(C)c(-n2nnc3cc(F)c(-n4c(=O)cc(C(F)(F)F)n(C)c4=O)cc32)c1" , is SETVI herbicidal rating under 6?
Reply | 1 (yes)

Ask | Lab log: compare recorded SETVI herbicidal rating with 6; is it strictly lower for "Cc1ccccc1-n1nnc2cc(F)c(-n3c(=O)cc(C(F)(F)F)n(C)c3=O)cc21" ?
Reply | 0 (no)

***
Ask | Quick check: does "C=CCOc1ccc(-n2nnc3cc(F)c(-n4c(=O)cc(C(F)(F)F)n(C)c4=O)cc32)c(C)c1" have SETVI herbicidal rating under 6?
Reply | 1 (yes)

Ask | Hello, is SETVI herbicidal rating of the following compound strictly smaller than 6? "Cc1ccc(O)cc1-n1nnc2cc(F)c(-n3c(=O)cc(C(F)(F)F)n(C)c3=O)cc21"
Reply | 1 (yes)

Ask | Below 6 on SETVI herbicidal rating? Entry "COC(=O)COc1ccc(-n2nnc3cc(F)c(-n4c(=O)cc(C(F)(F)F)n(C)c4=O)cc32)c(C)c1"
Reply | 1 (yes)

Ask | Item "Cc1ccc(O)c(-n2nnc3cc(F)c(-n4c(=O)cc(C(F)(F)F)n(C)c4=O)cc32)c1" : SETVI herbicidal rating beneath 6, strictly?
Reply | 1 (yes)
